# assayed.target: SV2A (Mus musculus)
# Sequence (Q9JIS5 whole entry): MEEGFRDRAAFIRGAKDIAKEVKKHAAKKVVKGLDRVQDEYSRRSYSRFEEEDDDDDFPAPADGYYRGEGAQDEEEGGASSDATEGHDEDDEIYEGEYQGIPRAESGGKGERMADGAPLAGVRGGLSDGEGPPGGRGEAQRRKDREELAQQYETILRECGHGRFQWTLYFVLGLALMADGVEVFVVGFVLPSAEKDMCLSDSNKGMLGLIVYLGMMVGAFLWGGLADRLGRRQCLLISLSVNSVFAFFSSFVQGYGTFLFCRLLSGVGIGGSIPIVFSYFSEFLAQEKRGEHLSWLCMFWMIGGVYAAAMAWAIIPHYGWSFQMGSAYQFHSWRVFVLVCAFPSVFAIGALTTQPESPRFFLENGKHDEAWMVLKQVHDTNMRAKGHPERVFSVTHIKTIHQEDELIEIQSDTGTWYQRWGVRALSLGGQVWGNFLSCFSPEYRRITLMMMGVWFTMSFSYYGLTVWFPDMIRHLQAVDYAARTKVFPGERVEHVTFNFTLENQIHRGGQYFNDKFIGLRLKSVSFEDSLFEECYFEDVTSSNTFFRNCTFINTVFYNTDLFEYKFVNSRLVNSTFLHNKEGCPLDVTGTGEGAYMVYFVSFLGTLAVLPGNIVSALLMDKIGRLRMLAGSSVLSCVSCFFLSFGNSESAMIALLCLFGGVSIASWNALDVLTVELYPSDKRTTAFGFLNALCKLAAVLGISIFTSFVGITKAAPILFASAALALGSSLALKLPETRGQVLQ
# Type: binding
# test.context: WT mouse brain sections, nonspecific binding with 1 mM levetiracetam
quantity: Kd (nM)

molecule="Cc1cnccc1CN1C[C@@H](c2cc(F)cc(F)c2)CC1=O [[^18F]SynVesT-1]" quantity_unit=nM quantitative_readout=9.8

###

# assayed.target: SV2A (Mus musculus)
# Format: binding
# test.context: mouse brain homogenate, 37 °C, 30 min; Kd=Ki=IC50−[radioligand]
pKd: −log10 of the molar value.
quantity: pKd

molecule="Cc1cnccc1CN1C[C@@H](c2cc(F)cc(F)c2)CC1=O [[^18F]SynVesT-1]" quantitative_readout=7.71
